Molecular target: Nuclear factor erythroid 2-related factor 2 (Homo sapiens)
Sequence (whole entry): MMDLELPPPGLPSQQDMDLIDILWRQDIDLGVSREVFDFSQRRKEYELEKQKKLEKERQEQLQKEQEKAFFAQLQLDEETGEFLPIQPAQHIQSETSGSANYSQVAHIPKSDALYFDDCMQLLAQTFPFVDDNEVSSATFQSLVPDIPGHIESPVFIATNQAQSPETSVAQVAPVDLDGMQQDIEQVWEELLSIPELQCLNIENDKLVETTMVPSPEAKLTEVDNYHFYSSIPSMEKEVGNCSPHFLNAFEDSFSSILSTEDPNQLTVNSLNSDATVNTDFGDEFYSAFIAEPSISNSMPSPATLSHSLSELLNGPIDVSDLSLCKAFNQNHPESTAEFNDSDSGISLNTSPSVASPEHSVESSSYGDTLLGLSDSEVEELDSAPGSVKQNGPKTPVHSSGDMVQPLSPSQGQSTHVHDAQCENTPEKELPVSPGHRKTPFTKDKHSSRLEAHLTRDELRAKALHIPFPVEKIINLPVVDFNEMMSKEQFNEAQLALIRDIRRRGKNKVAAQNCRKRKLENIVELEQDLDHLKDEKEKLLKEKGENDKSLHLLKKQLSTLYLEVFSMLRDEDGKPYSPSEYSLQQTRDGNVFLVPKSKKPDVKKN
Assay: Activation of Nrf2 in human HepG2-ARE-C8 cells assessed as upregulation of ARE level at 2 uM after 12 hrs by luciferase reporter gene assay relative to control
Assay type: cell-based
Endpoint name: fold change (FC)

>>> print(df.to_string())
                                smiles_text     endpoint_name  numeric_readout
0    Oc1cccc(-c2nc(-c3ccc4nc[nH]c4c3)no2)c1  fold change (FC)             2.44
1   CCc1ccc(-c2nc(-c3ccc4nc[nH]c4c3)no2)cc1  fold change (FC)             2.56
2  c1ccc2cc(-c3nc(-c4ccc5nc[nH]c5c4)no3)ccc2c1  fold change (FC)             3.47
3    Cc1ccc(-c2nc(-c3ccc4nc[nH]c4c3)no2)cc1  fold change (FC)             7.78
4  c1ccc(-c2ccc(-c3nc(-c4ccc5nc[nH]c5c4)no3)cc2)cc1  fold change (FC)             1.52
5    Oc1ccc(-c2nc(-c3ccc4nc[nH]c4c3)no2)cc1  fold change (FC)             2.19

----------
Quick list: fold change (FC) per entry.
Target: Nuclear factor erythroid 2-related factor 2 (Homo sapiens) (UniProt Q16236)
Assay: Activation of Nrf2 in human HepG2-ARE-C8 cells assessed as upregulation of ARE level at 40 uM after 12 hrs by luciferase reporter gene assay relative to control
Type: cell-based
Endpoint name: fold change (FC)

>>> df
                                 smiles_text     endpoint_name  numeric_readout
 0  Cn1cnc2ccc(-c3noc(-c4ccc5ccccc5c4)n3)cc21  fold change (FC)             1.45
 1                       COC(=O)/C=C/C(=O)OC  fold change (FC)             2.97
 2    Cn1nnc2ccc(-c3noc(-c4ccc(F)cc4)n3)cc21  fold change (FC)             5.96
 3  O=[N+]([O-])c1ccc(-c2nc(-c3ccc4nc[nH]c4c3)no2)cc1  fold change (FC)             36.7
 4  COc1ccc(OC)c(-c2nc(-c3ccc4nc[nH]c4c3)no2)c1  fold change (FC)             4.24
 5   COc1ccc(-c2nc(-c3ccc4nc[nH]c4c3)no2)cc1  fold change (FC)               13
 6    Cc1cccc(-c2nc(-c3ccc4nc[nH]c4c3)no2)c1  fold change (FC)             10.4
 7  COc1cc(-c2nc(-c3ccc4nc[nH]c4c3)no2)cc(OC)c1OC  fold change (FC)             3.24
 8    Cc1ccc(-c2nc(-c3ccc4nc[nH]c4c3)no2)cc1  fold change (FC)             16.6
 9      Cc1ccccc1-c1nc(-c2ccc3nc[nH]c3c2)no1  fold change (FC)             10.8
10     Cc1nc2cc(-c3noc(-c4ccccc4Br)n3)ccc2o1  fold change (FC)             4.05
11   CCc1ccc(-c2nc(-c3ccc4nc[nH]c4c3)no2)cc1  fold change (FC)             5.88

----------
Target: Nuclear factor erythroid 2-related factor 2 (Homo sapiens) (UniProt Q16236)
Experiment: Activation of Nrf2 in human HepG2-ARE-C8 cells assessed as upregulation of ARE level at 80 uM after 12 hrs by luciferase reporter gene assay relative to control
Type: cell-based
Catalogue of molecules with associated fold change (FC)
Endpoint name: fold change (FC)

>>> print(df.to_string())
                                 smiles_text     endpoint_name  numeric_readout
 0   Brc1ccc(-c2nc(-c3ccc4nc[nH]c4c3)no2)cc1  fold change (FC)             2.75
 1  O=[N+]([O-])c1cccc(-c2nc(-c3ccc4nc[nH]c4c3)no2)c1  fold change (FC)             16.5
 2  c1cc2ccc(-c3nc(-c4ccc5nc[nH]c5c4)no3)cc2[nH]1  fold change (FC)             11.6
 3   COc1ccc(-c2nc(-c3ccc4nc[nH]c4c3)no2)cc1  fold change (FC)             4.92
 4   Clc1ccc(-c2nc(-c3ccc4nc[nH]c4c3)no2)cc1  fold change (FC)             14.1
 5       Cn1nnc2cc(-c3noc(-c4ccccc4)n3)ccc21  fold change (FC)             7.67
 6  CCCCc1ccc(-c2nc(-c3ccc4nc[nH]c4c3)no2)cc1  fold change (FC)             14.8
 7    Cc1ccc(-c2nc(-c3ccc4nc[nH]c4c3)no2)cc1  fold change (FC)             12.7
 8     c1ccc(-c2nc(-c3ccc4nc[nH]c4c3)no2)nc1  fold change (FC)             2.65
 9   COc1cccc(-c2nc(-c3ccc4nc[nH]c4c3)no2)c1  fold change (FC)             12.4
10    Oc1cccc(-c2nc(-c3ccc4nc[nH]c4c3)no2)c1  fold change (FC)             4.05
11  FC(F)(F)c1ccc(-c2nc(-c3ccc4nc[nH]c4c3)no2)cc1  fold change (FC)             6.56
12    Cc1cccc(-c2nc(-c3ccc4nc[nH]c4c3)no2)c1  fold change (FC)             17.3
13  COc1cc(-c2nc(-c3ccc4nc[nH]c4c3)no2)cc(OC)c1OC  fold change (FC)             13.9
14      Oc1ccccc1-c1nc(-c2ccc3nc[nH]c3c2)no1  fold change (FC)             1.34
15  FC(F)(F)c1cccc(-c2nc(-c3ccc4nc[nH]c4c3)no2)c1  fold change (FC)             3.45

----------
Target: Nuclear factor erythroid 2-related factor 2 (Homo sapiens)
Assay: Activation of Nrf2 in human HepG2-ARE-C8 cells assessed as upregulation of ARE level at 0.2 uM after 12 hrs by luciferase reporter gene assay relative to control
Assay type: cell-based
Use 1 (yes) when the recorded fold change (FC) is no lower than 2; use 0 (no) when it is lower.

In [3]: df
Out[3]:
                                 smiles_text  assigned_class
 0      Cc1ccccc1-c1nc(-c2ccc3nc[nH]c3c2)no1          0 (no)
 1  FC(F)(F)c1cccc(-c2nc(-c3ccc4nc[nH]c4c3)no2)c1         1 (yes)
 2  Cn1cnc2ccc(-c3noc(-c4ccc5ccccc5c4)n3)cc21          0 (no)
 3  CCCCc1ccc(-c2nc(-c3ccc4nc[nH]c4c3)no2)cc1         1 (yes)
 4  FC(F)(F)c1ccc(-c2nc(-c3ccc4nc[nH]c4c3)no2)cc1         1 (yes)
 5    Oc1ccc(-c2nc(-c3ccc4nc[nH]c4c3)no2)cc1          0 (no)
 6    Cc1ccc(-c2nc(-c3ccc4nc[nH]c4c3)no2)cc1         1 (yes)
 7                       COC(=O)/C=C/C(=O)OC          0 (no)
 8      Oc1ccccc1-c1nc(-c2ccc3nc[nH]c3c2)no1          0 (no)
 9     c1cc(-c2nc(-c3ccc4nc[nH]c4c3)no2)ccn1         1 (yes)
10     c1ccc(-c2nc(-c3ccc4nc[nH]c4c3)no2)cc1         1 (yes)
11    Oc1cccc(-c2nc(-c3ccc4nc[nH]c4c3)no2)c1          0 (no)
